PROTOCOL DETAILS: human hepatoma cell viability loss – ATP luminescence, cytotoxicity control for P. falciparum antimalarial project, primary screen (AID 2303);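 note: 0% = DMSO wells and 100% = digitonin-killed cells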
CONDITION INFO: HepG2 viability, 24-48 h, at 10 µM, stronger effect = higher value
Reported inhibition by item:
Write the answer as a number in %, unit excluded.

COC(=O)c1cccc(CNCc2ccc(-c3ccc(-c4nc5c(C)cccc5[nH]4)s3)cc2)c1	3
Cn1ccc2c3c(N)nc(N)nc3ccc21	59
CCCCOc1ccccc1C(=O)NCc1csc(-c2ccccc2)n1	17
COc1ccc2nccc([C@@H](O)CN3CCC(NC(=O)c4ccc(Oc5ccccc5)cc4)CC3)c2c1	39

For the molecule COc1ccc(NC(=O)Nc2ccc(-c3ccc(-c4nc5ccccc5[nH]4)cc3)cc2)cc1 , what inhibition is on record? 22

For the molecule O=C(N[C@H]1CCN(Cc2ccc(OCCN3CCCC3)c(Cl)c2)C1)c1ccc(Cl)c(Cl)c1 , what inhibition is on record? 68

For the molecule CCN(CC)C(=S)N=Nc1c(O)[nH]c2c(C)cccc12 , what inhibition is on record? 28

For the molecule CS(=O)(=O)c1ccc2c(c1)CCN(CCC1CCC(NC(=O)c3cc4cccc(Br)c4[nH]3)CC1)CC2 (centres undefined) , what inhibition is on record? 27

For the molecule O[C@@H](c1ccccc1)[C@@H]1CN(CCC2C[C@@H]3CC[C@H]2C3)CC[C@@]1(O)c1ccccc1 (some centres undefined) , what inhibition is on record? -1

For the molecule CCC[C@@H]([C@@H](CC1CCCCC1)C(=O)NC(C(=O)Nc1nccs1)C(CC)c1ccccc1)N(O)C=O (some centres undefined) , what inhibition is on record? 50

###

PROTOCOL DETAILS: antimalarial activity against Dd2 strain (AID 2302);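 note: 0% = DMSO untreated growth and 100% = chloroquine plus artemisinin killed control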
CONDITION INFO: P. falciparum Dd2 in RBCs, LDH growth readout, 72 h; at 2 µM
Calls of active or inactive are those of the source.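 How the source made its calls: active means growth inhibition above 50% at the single 2 µM test dose, taken to imply half-maximal potency below 2 µM; inactive means the rest.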
Allowed answers: active, inactive

Can you look up the reported call for Cc1cccc2[nH]c(-c3ccc(-c4cccc(CNCCCN5CCCC5=O)c4)s3)nc12 for me? inactive

Can you look up the reported call for COc1cc2c(cc1S(=O)(=O)c1ccc(NC(=O)c3cccc(C(F)(F)F)c3)cc1)CCN(C)CC2 for me? inactive

Can you look up the reported call for C[C@H](NC(=O)c1cc(-c2ccc(C(C)(C)C)cc2)no1)C(=O)O (tested in a mixture with another compound) for me? active

Can you look up the reported call for CCCCOc1c(CCC)cc(Cc2cnc(N)nc2N)cc1CCC for me? inactive

Can you look up the reported call for CCc1ccccc1N1CCN(CCCCNC(=O)c2ccc(NC(=O)c3ccc(Cl)cc3)cc2)CC1 for me? inactive

Can you look up the reported call for COc1cc(OC)c2c(c1Cl)O[C@]1(C2=O)C(=O)C(Cc2ccccc2)(Cc2ccccc2)C(=O)C[C@H]1C for me? inactive

Can you look up the reported call for CNC(=O)c1cnc(Nc2ccc(OCC(O)CN(C)C)cc2)nc1Nc1cccc(Br)c1 (centres undefined) for me? active

###

EXPERIMENTAL TARGET: L-lactate dehydrogenase (Plasmodium falciparum (isolate CDC / Honduras)) (UniProt Q27743)
Sequence (Q27743 whole entry, looked up): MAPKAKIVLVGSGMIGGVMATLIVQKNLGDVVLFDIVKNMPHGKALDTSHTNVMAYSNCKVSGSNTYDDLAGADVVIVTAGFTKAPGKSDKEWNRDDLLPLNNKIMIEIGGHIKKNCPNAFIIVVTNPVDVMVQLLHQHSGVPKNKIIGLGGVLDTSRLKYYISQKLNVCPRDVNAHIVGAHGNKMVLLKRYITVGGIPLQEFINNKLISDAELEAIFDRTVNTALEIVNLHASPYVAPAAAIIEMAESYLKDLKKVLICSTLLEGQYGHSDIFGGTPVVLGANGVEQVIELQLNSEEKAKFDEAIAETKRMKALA
PROTOCOL DETAILS: PfLDH activity inhibition – cell lysate, 3D7 strain, counter-screen for P. falciparum growth inhibition project (AID 2304);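 note: 0% = vehicle and 100% = reference inhibitor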
CONDITION INFO: P. falciparum 3D7 crude extract, LDH APAD/NBT absorbance; at 2 µM; stronger effect = higher value
Reported inhibition by item:
Write the answer as a number in %, unit excluded.

Below are worked cases with known answers.
CCOc1ccc(Br)cc1/C=C/C(=O)Nc1ccc2c(c1)CCCN(C)C2	-1
NCc1ccc(CNCc2ccc(-c3ccc(-c4nc5ccc(F)cc5[nH]4)cc3)cc2)cc1	-3
COc1ccc(CCC(C)N2C[C@@H](N)[C@H](c3cn(C)c4cnccc34)C2)cc1 (stereo not given in full)	-1

For the molecule CCOc1ccc(-c2nonc2NC(=O)CC(C)C)cc1OCC , what inhibition is on record? 6

For the molecule COc1ccc(-c2nc(NCc3ccccc3)c3cc(OC)c(OC)cc3n2)cc1 , what inhibition is on record? -1

For the molecule CC[C@H](C)CNC(=O)c1ccnc(-c2cccc(CN3CCC(N4CCCC4)CC3)c2)c1 , what inhibition is on record? -2

For the molecule O=C(CCc1cnc[nH]1)Nc1ccc(-c2ccc(-c3nc4ccccc4[nH]3)cc2)cc1 , what inhibition is on record? 0

For the molecule COc1ccc(-n2nc(C(=O)NCCC3=CCCCC3)c3ccccc3c2=O)cc1 , what inhibition is on record? -4

For the molecule Cc1sc2nc(CSc3ccccc3)nc(N3CCN(CC(=O)NC4CC4)CC3)c2c1C , what inhibition is on record? 1

For the molecule COc1ccc(C=NNc2cc(C)nc3ccc(C)cc23)c2ccccc12 , what inhibition is on record? 4

###

PROTOCOL DETAILS: human hepatoma cell viability loss – ATP luminescence, cytotoxicity control for P. falciparum antimalarial project, primary screen (AID 2303);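 note: 0% = DMSO wells and 100% = digitonin-killed cells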
CONDITION INFO: HepG2 viability, 24-48 h, at 10 µM
The source made the active and inactive calls.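 Rule for the calls: active = inhibition above 50%; inactive = the rest.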
Allowed answers: t (active), f (inactive)

Reference set (3 entries):
CC(C)NC[C@@H](O)[C@H](Cc1ccccc1)NC(=O)c1cc2c3c(c1)c(C(C)C)cn3CCS(=O)(=O)N2C	f
COc1ccc(C=C2SC(=N)N(c3ccccc3OC)C2=O)cc1	f
CC(C)CNCc1ccc(-c2ccc(CN(CCCN3CCN(C)CC3)C(=O)CCC3CCCC3)cc2)cc1	t

Can you look up the reported call for Cc1[nH]c(C)c(-c2ccc(OCc3ccc(OC(F)(F)F)cc3)nc2)c(=O)c1Br for me? f

Can you look up the reported call for CCOC(=O)c1cc(C(=O)NCCCCN2CCC(c3ccc(CC)cc3OCC)CC2)ccc1-c1ccc(C(F)(F)F)cc1 for me? t

###

PROTOCOL DETAILS: human hepatoma cell viability loss – ATP luminescence, cytotoxicity control for P. falciparum antimalarial project, primary screen (AID 2303);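 note: 0% = DMSO wells and 100% = digitonin-killed cells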
CONDITION INFO: HepG2 viability, 24-48 h, at 10 µM
Activity calls are given as the source filed them.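 The calls were made as follows: active = inhibition above 50%; inactive = the rest.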
Allowed answers: active, inactive

Reference set (5 entries):
CCN(CC1CCN(CC2(O)CCOCC2)CC1)c1cc(C)nc(Nc2ccc(Cl)cc2)n1	inactive
Cc1cccc2[nH]c(-c3ccc(-c4ccc(NC(=O)Nc5ccc(F)c(F)c5F)cc4)cc3)nc12	active
CC(CN1CCN(C)CC1)C(=O)Nc1ccc(-c2cccc(-c3nc4ccc(F)cc4[nH]3)c2)cc1 (stereo not given)	inactive
Cc1nc(N)nc(N)c1-c1ccc(Br)cc1	inactive
CNCCNCc1ccc(-c2ccc(-c3nc4ccc(F)cc4[nH]3)s2)cc1	inactive

# ---- query compound ----
Can you look up the reported call for CC1(C)N=C(N)N=C(N)N1OCc1ccc2c(c1)OCO2 for me? active

###

PROTOCOL DETAILS: antimalarial activity against Dd2 strain (AID 2302);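 note: 0% = DMSO untreated growth and 100% = chloroquine plus artemisinin killed control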
CONDITION INFO: P. falciparum Dd2 in RBCs, LDH growth readout, 72 h; at 2 µM; stronger effect = higher value
Activity calls are given as the source filed them.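 The calls were made as follows: active = growth inhibition above 50% at the single 2 µM test dose, taken to imply half-maximal potency below 2 µM; inactive = the rest.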
REPORTED ENDPOINT: growth inhibition

Below are worked cases with known answers.
CC(=O)Nc1cccc(C(=O)Nc2cccc(-c3ccc(-c4nc5ccc(F)cc5[nH]4)cc3)c2)c1	9% (inactive)
OC(CNCc1ccccc1OCc1ccccc1)c1cccc(C(F)(F)F)c1 (stereo not given)	99% (active)
CN(C)S(=O)(=O)c1ccc(Nc2nc(NCCC3C=NC=N3)nc3cc[nH]c(=O)c23)cc1 (stereo not given)	63% (active)
CCCc1ccc(NC(=O)c2cccc(CN3CCCN(Cc4cccc(O)c4)CC3)c2)cc1	40% (inactive)

Below: the item to evaluate.
For the compound COc1ccc(C(=O)COc2cccc(/C=C/C(=O)O)c2)cc1OC , what growth inhibition is on record? 28% (inactive)

###

PROTOCOL DETAILS: human hepatoma cell viability loss – ATP luminescence, cytotoxicity control for P. falciparum antimalarial project, primary screen (AID 2303);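 note: 0% = DMSO wells and 100% = digitonin-killed cells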
CONDITION INFO: HepG2 viability, 24-48 h, at 10 µM, stronger effect = higher value
inhibition strictly less than 20% = 1.0. Otherwise 0.0.

Please check: inhibition for CN(C)CCCNc1nccc(N(C)c2ccc(NC(=O)Nc3cc(C(F)(F)F)ccc3F)cc2)n1 , strictly under 20% or not? 0.0

Please check: inhibition for CCN(CC)CCOc1ccc(C(O)(C#CC(O)(c2ccc(Br)cc2)c2ccc(OCCN(CC)CC)cc2)c2ccc(Br)cc2)cc1 (centres undefined) , strictly under 20% or not? 0.0

Please check: inhibition for COc1ccccc1CC1CCCN(C2CCC(NC(=O)c3cc4ccccc4[nH]3)CC2)C1 (centres undefined) , strictly under 20% or not? 0.0

Please check: inhibition for O=C(Nc1cccnc1)c1cc(C(=O)Nc2cccnc2)cc([N+](=O)[O-])c1 , strictly under 20% or not? 1.0
